Hey, just so you know, these numbers are from ChEMBL document CHEMBL1201862.

Entries and their GI50
Tested on: HCC 2998
Test Protocol: NCI tumour cell line growth inhibition, 48 h
Active and inactive are the calls of the source. No stated cut-off is given here; in the data, active = GI50 up to about 1.1 µM and inactive = higher.
Experimental Endpoint: GI50

# Molecule, Target Under Test, Experimental Endpoint, Result Value
data = [
    ("O=c1c2ncn(C3CCCCO3)c2n(-c2ccccc2)c(=S)n1-c1ccccc1 (stereo not given)", "HCC 2998", "GI50", "> 70 µM (inactive)"),
    ("c1ccc(-c2nnc(-c3nn(-c4ccccc4)c4nc5ccccc5nc34)o2)cc1", "HCC 2998", "GI50", "> 100 µM (inactive)"),
    ("C=C(C)[C@H]1CC[C@@]2(C)C(C1)[C@H](C)CC[C@@H]2O (stereo not given in full)", "HCC 2998", "GI50", "> 100 µM (inactive)"),
    ("N#CC1(C#N)C(c2ccc(C3C(C#N)(C#N)C3(C#N)C#N)cc2)C1(C#N)C#N", "HCC 2998", "GI50", "> 100 µM (inactive)"),
    ("C=CCSC1=N/C(=C\\c2ccc(C)cc2)C(=O)N1CC=C", "HCC 2998", "GI50", "23.8 µM (inactive)"),
    ("CC(=O)c1c(SCCN2CCOCC2)n(-c2ccccc2)c(=S)n(-c2ccccc2)c1=O", "HCC 2998", "GI50", "14.3 µM (inactive)"),
    ("O=C(/C=C/c1ccccc1Cl)c1ccccc1Cl", "HCC 2998", "GI50", "21.6 µM (inactive)"),
    ("CCOC(=O)c1nc2ccc([N+](=O)[O-])cc2c2c1CCO2", "HCC 2998", "GI50", "> 100 µM (inactive)"),
    ("Cc1c(C2Cc3ccccc3N2C(=O)/C=C\\C(=O)O)c2ccccc2n1C (stereo not given)", "HCC 2998", "GI50", "21.4 µM (inactive)"),
    ("O=C1C(Cl)=CC2(C=C1Cl)CCNC1=C2C(=O)c2nc[nH]c2C1=O", "HCC 2998", "GI50", "39.4 µM (inactive)"),
]
